# target-entity: human TIM-3 on cells (human, UniProt Q8TDQ0 22-301)
# test-summary: cell-based or functional assay
reported-metric: IFN-gamma release in MLR at 1 µg/ml, % of IL-2 control (%)
Please reply with the bare figure in % and do not write the unit itself.

Solved cases (2 shown):
binder: Tim3_0016 variant (Tim3_0018) (antibody, V domains shown, also called TIM3-0016 variant (0018); aTim3 0018) VH: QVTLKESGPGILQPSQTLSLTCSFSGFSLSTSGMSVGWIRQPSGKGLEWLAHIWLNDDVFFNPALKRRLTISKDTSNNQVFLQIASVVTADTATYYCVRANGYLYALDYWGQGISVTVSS VL: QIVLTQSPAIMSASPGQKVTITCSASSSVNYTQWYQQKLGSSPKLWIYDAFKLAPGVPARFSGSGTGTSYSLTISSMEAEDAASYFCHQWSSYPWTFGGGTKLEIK
observed-measurement: 12
//
binder: Tim3_0021 (antibody, V domains shown) VH: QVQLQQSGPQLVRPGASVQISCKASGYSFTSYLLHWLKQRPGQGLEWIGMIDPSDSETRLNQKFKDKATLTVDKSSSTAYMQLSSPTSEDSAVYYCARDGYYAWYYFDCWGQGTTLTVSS VL: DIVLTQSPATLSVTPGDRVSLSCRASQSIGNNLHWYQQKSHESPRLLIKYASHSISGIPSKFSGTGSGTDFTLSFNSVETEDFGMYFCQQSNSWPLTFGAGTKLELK
observed-measurement: 101

INPUT: # return recorded IFN-gamma release in MLR at 1 µg/ml, % of IL-2 control for input Tim3_0033 (antibody, V domains shown) VH: QGQMHQSGAELVKPGSSVKLSCKTSGFTFSSSFISWLKQKPGQSLEWIAWIYAATGSTSYNQKFTNKAQLTVDTSSSAAYMQFSSLTTEDSAIYYCARHAGYPHYYAMDYWGQGTSVTVSS VL: DIQMTQSPASLSASVGETVTITCRASENIFSNLAWYQQKQGKSPQLLVYSATNLGDGVPSRFSGSGSGTQFSLKINSLQPEDFGNYYCQHFYKIPFTFGTGTKLEIK
OUTPUT: 0

INPUT: Quote IFN-gamma release in MLR at 1 µg/ml, % of IL-2 control reported for Tim3_0038 (antibody, V domains shown) VH: EVQLQQSGAEPLKPGASVKLTCTTSGFNIKDYYIHWVKQRSDQGLEWIGRIDPEDGELIYAPKFQDKATITVDTSSNIAYLQLNSLTSEDTAVYYCSRDHGYVGWFAYWGQGTLVTVSA VL: NVVMTQSPKSMIMSVGQRVTLNCKASENVDTYVSWYQQKPEQSPKLLIYGASNRYTGVPDRFTGSRSATDFTLTISSVQAEDLAVYYCGQSYSYPWTFGGGTKLEFR please.
OUTPUT: 1

INPUT: Quick one: give measured IFN-gamma release in MLR at 1 µg/ml, % of IL-2 control for Tim3_0016 (antibody, V domains shown, also called clone 0016) VH: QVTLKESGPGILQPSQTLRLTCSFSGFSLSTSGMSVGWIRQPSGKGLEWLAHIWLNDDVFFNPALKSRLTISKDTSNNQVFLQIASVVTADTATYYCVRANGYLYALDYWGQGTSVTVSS VL: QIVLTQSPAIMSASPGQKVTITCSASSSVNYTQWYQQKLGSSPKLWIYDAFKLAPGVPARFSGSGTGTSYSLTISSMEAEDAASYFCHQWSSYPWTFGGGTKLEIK
OUTPUT: 7
